# test_system: SRPK1 (Homo sapiens)
# test: In vitro inhibition of SR protein kinase 1 by compound dissolved in 100% DMSO using 5''-[gamma-33P]-triphosphate
pIC50: −log10 of the molar value.
Decide by pIC50: equal to or exceeding 6 means 1.0, less means 0.0.

COc1cc2nc(-c3cccs3)c(-c3cccs3)nc2cc1OC    0.0
COC(=O)Cc1csc(-c2nc3cc4ccccc4cc3nc2-c2cc(CC(=O)OC)cs2)c1    0.0
c1csc(-c2nc3cc4c(cc3nc2-c2cccs2)OCCO4)c1    0.0
O=C(O)c1ccc2cc3nc(-c4cccs4)c(-c4cccs4)nc3cc2c1    1.0
Oc1cc2nc(-c3cccs3)c(-c3cccs3)nc2cc1O    0.0

Turning to the following compound.
Threshold query (pIC50 >= 6) on COC(=O)CCc1ccc(-c2nc3cc4ccccc4cc3nc2-c2ccc(CCC(=O)OC)s2)s1 0.0

---

# test_system: SRPK1 (Homo sapiens)
# test: In vitro inhibition of SR protein kinase 1 by compound dissolved in 100% DMSO using 5''-[gamma-33P]-triphosphate
So basically, if IC50 comes in under 1000 nM it's rule met, and if it's 1000 nM or more it's rule not met.

A selection of reference data follows.
O=C(O)C1COc2cc3nc(-c4cccs4)c(-c4cccs4)nc3cc2O1 (stereo not given)    rule met
c1csc(-c2nc3cc4ccccc4cc3nc2-c2cccs2)c1 [2,3-Di-thiophen-2-yl-benzo[g]quinoxaline]    rule not met
O=C(O)CCc1ccc(-c2nc3cc4ccccc4cc3nc2-c2ccc(CCC(=O)O)s2)s1    rule met

For this compound, is IC50 lower than 1000 nM? COc1cc2nc3nc(-c4cccs4)c(-c4cccs4)nc3nc2cc1OC rule not met

Answer whether the compound O=C(O)CCCc1ccc(-c2nc3cc4ccccc4cc3nc2-c2ccc(CCCC(=O)O)s2)s1 has IC50 strictly less than 1000 nM rule met
